molecular target: T1, human VEGFA165 (human, UniProt P15692-4 27-191); assay: competitive ELISA, coated VEGFA, competitor VEGFR2-ECD-Fc 1 nM
T1 construct: Bought protein from two suppliers, treated as one molecule; the supplier is named under assay; also called antigen VEGFA
T1 sequence (P15692 other isoform, or with tags, fused parts or gaps limits assumed): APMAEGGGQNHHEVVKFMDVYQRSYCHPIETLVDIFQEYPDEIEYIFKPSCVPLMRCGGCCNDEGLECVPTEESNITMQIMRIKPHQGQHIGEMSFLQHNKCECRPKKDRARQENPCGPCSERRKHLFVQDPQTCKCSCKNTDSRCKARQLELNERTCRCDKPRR
pIC50: −log10 of the molar value.

- binder: "V15-V40 (bispecific antibody) QLQLVESGGGSVQPGGSLRLSCEVSGRTFASYTMGWFRQAPGKEREFVVAISKGGYKYDSVSLEARFTISKDNTKNTVYLQMNSLKPEDTAVYYCAGTRAYGSSRLRLAETYEYWGQGTQVTVSSGGGGSGGGSQLQLVESGGGSVQPGGSLRLSCEVSGRTFTSYTMGWFRQAPGKEREFVVAISKGGYKYNAVSLEARFTISKDNTKNTVYLQMNSLKPEDTAVYYCAATRAYGSSRLRLAKTYEYWGQGTQVTVSS"
  pIC50: 8.39
- binder: "V30-V40 (bispecific antibody) QLQLVESGGGSVQPGGSLRLSCEVSGRTFSSYTMGWFRQAPGKGREFVVAISKGGYKYDAVSLEARFTISKDNTKNTVYLQMNSLKPEDTAVYYCAATRAYGSSRLRLAKTYEYWGQGTQVTVSSGGGGSGGGSQLQLVESGGGSVQPGGSLRLSCEVSGRTFTSYTMGWFRQAPGKEREFVVAISKGGYKYNAVSLEARFTISKDNTKNTVYLQMNSLKPEDTAVYYCAATRAYGSSRLRLAKTYEYWGQGTQVTVSS"
  pIC50: 8.48
- binder: "V1-V30 (bispecific antibody) QLQLVESGGGSVQPGGSLRLSCEVSGRTFSSYTMGWFRQAPGKEREFVVAISKGGYKYDSVSLEARFTISKDNTKNTVYLQMNSLKPEDTAVYYCAATRAYGSSRLRLADTYEYWGQGTQVTVSSGGGGSGGGSQLQLVESGGGSVQPGGSLRLSCEVSGRTFSSYTMGWFRQAPGKGREFVVAISKGGYKYDAVSLEARFTISKDNTKNTVYLQMNSLKPEDTAVYYCAATRAYGSSRLRLAKTYEYWGQGTQVTVSS"
  pIC50: 8.55
- binder: "V15-V30 (bispecific antibody) QLQLVESGGGSVQPGGSLRLSCEVSGRTFASYTMGWFRQAPGKEREFVVAISKGGYKYDSVSLEARFTISKDNTKNTVYLQMNSLKPEDTAVYYCAGTRAYGSSRLRLAETYEYWGQGTQVTVSSGGGGSGGGSQLQLVESGGGSVQPGGSLRLSCEVSGRTFSSYTMGWFRQAPGKGREFVVAISKGGYKYDAVSLEARFTISKDNTKNTVYLQMNSLKPEDTAVYYCAATRAYGSSRLRLAKTYEYWGQGTQVTVSS"
  pIC50: 8.49
- binder: "V1-V40 (bispecific antibody) QLQLVESGGGSVQPGGSLRLSCEVSGRTFSSYTMGWFRQAPGKEREFVVAISKGGYKYDSVSLEARFTISKDNTKNTVYLQMNSLKPEDTAVYYCAATRAYGSSRLRLADTYEYWGQGTQVTVSSGGGGSGGGSQLQLVESGGGSVQPGGSLRLSCEVSGRTFTSYTMGWFRQAPGKEREFVVAISKGGYKYNAVSLEARFTISKDNTKNTVYLQMNSLKPEDTAVYYCAATRAYGSSRLRLAKTYEYWGQGTQVTVSS"
  pIC50: 8.43
- binder: "V1-V15 (bispecific antibody) QLQLVESGGGSVQPGGSLRLSCEVSGRTFSSYTMGWFRQAPGKEREFVVAISKGGYKYDSVSLEARFTISKDNTKNTVYLQMNSLKPEDTAVYYCAATRAYGSSRLRLADTYEYWGQGTQVTVSSGGGGSGGGSQLQLVESGGGSVQPGGSLRLSCEVSGRTFASYTMGWFRQAPGKEREFVVAISKGGYKYDSVSLEARFTISKDNTKNTVYLQMNSLKPEDTAVYYCAGTRAYGSSRLRLAETYEYWGQGTQVTVSS"
  pIC50: 8.42

// data source = patent US20260234232A1
